Where these numbers come from: paper PMC7823652

# System: ZIKV
# assayText: Antiviral dose-response in ZIKV-infected U87 cells (infected cells, viral titer)
# Type: cell-based, Zika virus (strain H/PF/2013)
# experimentalSetup: Zika virus, U-87 MG; U87, ZIKV MOI 1, 48 h, ZIKV NS1 staining; read-out: EC50 [μM] Infected cells
observationType: EC50 (µM)
Express your answer in µM, writing the number without its unit.

# annotated cases, reported EC50 shown
# compound, studyTarget, EC50, µM
data = [
    ("O=C(Nc1ccc(I)cc1)N1CCC(n2c(=O)[nH]c3cc(C(F)(F)F)ccc32)CC1 [TH5264]", "ZIKV", 2.7),
    ("CCOC(=O)c1cnn(-c2cccc3c2[nH]c(=O)n3C2CCN(C(=O)Nc3ccc(I)cc3)CC2)c1 [TH6744]", "ZIKV", 7.5),
]

Could you now look at the following compound, please?
stdin: Identify measured EC50 corresponding to O=C(Nc1ccc(I)cc1)N1CCC(n2c(=O)[nH]c3cc(Cl)ccc32)CC1 [TH3289]
stdout: 2.8

====

# Tested on: ZIKV
# assayText: Antiviral dose-response in ZIKV-infected Vero cells
# Type: cell-based, Zika virus (strain H/PF/2013)
# experimentalSetup: Zika virus, 24 h, MOI 10, 24 h, read-out: Antiviral on titer (µM) IC50
observationType: IC50 (µM)
Express your answer in µM, writing the number without its unit.

stdin: Identify measured IC50 corresponding to CCOC(=O)c1cnn(-c2cccc3c2[nH]c(=O)n3C2CCN(C(=O)Nc3ccc(I)cc3)CC2)c1 [TH6744]
stdout: 5.5

====

# assayText: in vitro
# Type: cell-based
# experimentalSetup: African green monkey
observationType: CC50 at 48 h

stdin: Identify measured CC50 at 48 h corresponding to `CCOC(=O)c1cnn(-c2cccc3c2[nH]c(=O)n3C2CCN(C(=O)Nc3ccc(I)cc3)CC2)c1`
stdout: > 50 µM

====

# assayText: Cell viability assay (Resazurin), uninfected U87 cells
# Format: cell-based, Human
# experimentalSetup: human, uninfected U87 cells; uninfected U87, 24 h; read-out: Viability CC50 [µM] (95%-CI)
observationType: CC50 at 24 h

stdin: Identify measured CC50 at 24 h corresponding to NC(=O)c1ncn([C@@H]2O[C@H](CO)[C@@H](O)[C@H]2O)n1 [Ribavirin, reference compound]
stdout: > 300 µM

====

// reported IC50 for each item listed
# Tested on: ZIKV
# assayText: Antiviral dose-response in ZIKV-infected Vero cells
# Assay type: cell-based, Zika virus (strain H/PF/2013)
# experimentalSetup: Zika virus, 48 h, MOI 1, 48 h, read-out: Antiviral on titer (µM) IC50
Express your answer in µM, writing the number without its unit.

stdin: Name the value of IC50 reported for `CCOC(=O)c1cnn(-c2cccc3c2[nH]c(=O)n3C2CCN(C(=O)Nc3ccc(I)cc3)CC2)c1` when tested on ZIKV.
stdout: 3.6

stdin: Name the value of IC50 reported for NC(=O)c1ncn([C@@H]2O[C@H](CO)[C@@H](O)[C@H]2O)n1 [Ribavirin, reference compound] when tested on ZIKV.
stdout: 21

====

# assayText: Cell viability assay (Resazurin), uninfected U87 cells
# Assay type: cell-based, Human
# experimentalSetup: human; uninfected U87, 72 h; read-out: Viability CC50 [µM] (95%-CI)
// reported CC50 at 72 h for each item listed
Express your answer in µM, writing the number without its unit.

# compound, CC50 at 72 h / µM
records = [
    ("O=C(Nc1ccc(I)cc1)N1CCC(n2c(=O)[nH]c3cc(C(F)(F)F)ccc32)CC1 [TH5264]", 31.5),
]

stdin: Identify measured CC50 at 72 h corresponding to O=C(Nc1ccc(I)cc1)N1CCC(n2c(=O)[nH]c3cc(Cl)ccc32)CC1 [TH3289]
stdout: 34
